Assay: Primary qHTS assay for inhibitors of alpha-synuclein gene (SNCA) expression; also: nearly all actives have a fitted effect of over 45% in size
Details: HEK-293 SNCA-luciferase knock-in, luminescence, 24 h; series mostly up to 57.2 µM
The campaign covered roughly 140,000 compounds. About 240 (0.17%) were called active. Inconclusive results (about 9%) are left out. Calls follow the shape of the dose curve; as a rule, active = well fitted inhibition curve with a large enough effect; inconclusive = small, poorly fitted or top-dose-only effect; inactive = no such curve, though single readings can be large or run the other way. Many of the other results were omitted from the sample, so actives are more common in it than they were.
Output constraint: value belongs to active, inactive

Prompt line: Entry "Cc1noc([C@@H]2CN(CCCc3ccccc3)C[C@H]2CO)n1" : call = ?
Response line: inactive

Prompt line: Entry CCOC(=O)C1CCCN(C(=O)c2ccc3oc(-c4ccccn4)nc3c2)C1 (stereo unspecified) : call = ?
Response line: inactive

Prompt line: Entry COc1ccc(-c2cc(N3CCCC(NC(=O)c4cccc(Cl)c4)C3)n[nH]2)cc1 (stereo unspecified) : call = ?
Response line: inactive

Prompt line: Entry "CCCS(=O)(=O)N1CCC(CCOC)(NC(=O)NCC)CC1" : call = ?
Response line: inactive

Prompt line: Entry CC(=O)N1CCN(C(=O)C2CCCN2Cc2ccc(-c3cc(C)cc(C)c3)cc2)CC1 (stereo unspecified) : call = ?
Response line: inactive

Prompt line: Entry "O=C1CO[C@H]2CN(C3CCC3)C[C@H]2N1Cc1ccc(OC(F)(F)F)cc1" : call = ?
Response line: inactive

Prompt line: Entry "Cc1cn2nc(C(=O)Nc3ccc(F)cc3C)cc2c(N(C)Cc2ccccc2)n1" : call = ?
Response line: inactive

Prompt line: Entry O=C(COc1ccc(F)cc1)NC1CCc2n[nH]c(=O)n2CC1 (stereo unspecified) : call = ?
Response line: inactive

Prompt line: Entry "COCCCn1c(C)cnc1CC1CCN(C(=O)CC2CCCCC2)CC1" : call = ?
Response line: inactive

Prompt line: Entry CCOc1cccc(CN2CCC(Oc3ccc(-c4noc(C5CC5)n4)cc3)C2)c1 (stereo unspecified) : call = ?
Response line: inactive

Prompt line: Entry "COc1ccc(-c2ccc3c(n2)CN(CCOc2ccccc2)C(=O)CO3)cc1F" : call = ?
Response line: inactive

Prompt line: Entry "Cc1ccc(-c2noc([C@@H]3C[C@@H](O)CN3Cc3cccc(C#N)c3)n2)cc1F" : call = ?
Response line: inactive

Prompt line: Entry "COc1ccc(-c2ccnc(N[C@H]3CO[C@H]4[C@@H]3OC[C@H]4OC(=O)Nc3cccc4ccccc34)n2)cc1" : call = ?
Response line: inactive

Prompt line: Entry O=C(C1CCC(Cn2c(=O)c3sccc3n(Cc3ccccc3F)c2=O)CC1)N1CCCCC1 (stereo unspecified) : call = ?
Response line: active

Prompt line: Entry "O=C(c1n[nH]c2c1CCCC2)N1CCC2(CC1)NC(=O)N(c1ccc(F)cc1)N2" : call = ?
Response line: inactive

Prompt line: Entry "Cn1cccc1C(=O)N1C[C@@H](COc2ccccc2)[C@H](C(N)=O)C1" : call = ?
Response line: inactive

Prompt line: Entry CC(C)NC(=O)C1CCC(Cn2c(=O)c3sccc3n(Cc3ccc(F)cc3)c2=O)CC1 (stereo unspecified) : call = ?
Response line: inactive

Prompt line: Entry "COC(=O)N1CCN(C(=O)c2cccc(-c3ccccc3OC)c2)CC1" : call = ?
Response line: inactive

Prompt line: Entry "COc1ccc(NC(=O)[C@@H]2C[C@@H](c3ccc(F)cc3)N(CCOc3ccccc3)C2)cn1" : call = ?
Response line: inactive

Prompt line: Entry "COc1ccccc1-n1c(=O)c(C(=O)N2CCN(C(=O)Cc3ccc(F)cc3)CC2)nc2cccnc21" : call = ?
Response line: inactive

Prompt line: Entry "CC(=O)N1CCC(N[C@H]2C[C@@H](Cc3cc(CN(C)c4ccccc4)on3)C2(C)C)CC1" : call = ?
Response line: inactive

Prompt line: Entry "COc1ccccc1-c1cc(C(=O)NCCSC)nn2cccc12" : call = ?
Response line: inactive

Prompt line: Entry "O=C1NCCCCCCN(Cc2ccncc2)[C@@H]2CN(CC3CC3)CC[C@@H]12" : call = ?
Response line: inactive

Prompt line: Entry CCOC(=O)C1(Cc2ccc(F)cc2F)CCCN(Cc2cccc(OC)c2O)C1 (stereo unspecified) : call = ?
Response line: inactive

Prompt line: Entry "C[C@H](C(=O)N1Cc2ccccc2CC2(CCN(Cc3ccncc3)CC2)C1)c1ccccc1" : call = ?
Response line: inactive

Prompt line: Entry "Oc1ccccc1CN1CCOC[C@H]1c1ncc(-c2ccc(C(F)(F)F)cc2)[nH]1" : call = ?
Response line: inactive

Prompt line: Entry CCOc1cccc(CNC(=O)CC2CCCCN(Cc3ccccc3)C2=O)c1 (stereo unspecified) : call = ?
Response line: inactive

Prompt line: Entry "COc1ccccc1Nc1ccnc(N2CCC(C(=O)N3CCC(c4ccccc4)CC3)CC2)n1" : call = ?
Response line: inactive

Prompt line: Entry CCCNC(=O)C(NC(=O)c1ccccc1C)C1CCN(C(=O)c2ccc(OC)cc2)CC1 (stereo unspecified) : call = ?
Response line: inactive

Prompt line: Entry "CCc1nc2c(c(-c3ccc(O)cc3)n1)CCN(Cc1cccc(OC)c1)CC2" : call = ?
Response line: inactive

Prompt line: Entry COc1cccc(C(=O)N2CCCC(C(=O)N3CCC(c4nc5ccncc5[nH]4)C3)C2)c1 (stereo unspecified) : call = ?
Response line: inactive

Prompt line: Entry COc1cccc(CNC(=O)N2CCCC3(C2)Nc2cccnc2NC3=NC2CCCC2)c1 (stereo unspecified) : call = ?
Response line: inactive

Prompt line: Entry "CCOc1ccc(N(CC)C(=O)C2CCN(S(=O)(=O)c3cccc4nonc34)CC2)cc1" : call = ?
Response line: inactive

Prompt line: Entry CC(C)=CCC1(CO)CCCN(Cc2ccccc2OCCO)C1 (stereo unspecified) : call = ?
Response line: inactive

Prompt line: Entry "COc1ccc(OC)c(CN2CCC3(CC2)COCCN3C(=O)OCc2ccccc2)c1" : call = ?
Response line: inactive

Prompt line: Entry CC(C)CNC(=O)C1CCCN(c2nccc(Nc3ccccc3F)n2)C1 (stereo unspecified) : call = ?
Response line: inactive

Prompt line: Entry "COc1ccc(NC(=O)c2c(C)oc3ccn(Cc4ccc(F)cc4)c(=O)c23)c(OC)c1" : call = ?
Response line: inactive

Prompt line: Entry Cc1c(Cl)cccc1NC(=O)N(C)CC1CCOC1 (stereo unspecified) : call = ?
Response line: inactive

Prompt line: Entry "O=C(c1ccccc1Cl)N1CCCN(c2cc(-c3ccc(F)cc3)[nH]n2)CC1" : call = ?
Response line: inactive

Prompt line: Entry "CCOc1ccc(NC(=O)CN(Cc2ccccc2)S(=O)(=O)c2ccc(Cl)cc2)cc1" : call = ?
Response line: inactive

Prompt line: Entry COc1ccc(CN2CCN(c3ccccc3)CC2C)c(OC)c1OC (stereo unspecified) : call = ?
Response line: inactive
